Exercise: for every item that follows, state its recorded normalized growth.
Experiment: chemical genetic growth profiling, strain panel (AID 1159580);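 further: tested at 20 µM; growth read once vehicle control cultures reached saturation at 30 °C; 1 = growth at the plate median or of vehicle wells; lower values mean less growth of the strain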
Conditions: S. cerevisiae deletion strains, growth OD, locus YDR069C, strain doa4, stronger effect = lower value
Hit rate of the full screen: of about 5,500 compounds, about 2,000 (36%) were called active. Not shown: some 18% with an inconclusive outcome. Some of the results follow.

OCc1ccccc1O[C@@H]1O[C@H](CO)[C@@H](O)[C@H](O)[C@H]1O :: 0.987 (inactive)
CCCCCCCCCCCCCCCCOP(=O)([O-])OCC[N+](C)(C)C :: 0.0612 (active)

Give normalized growth for each listed item.
1. CCCCCCCC/C=C/CCCCCCCCOP(=O)([O-])OCC[N+](C)(C)C
2. C[N+](C)(C)CCOP(=O)([O-])OP(=O)(O)OC[C@H]1OC(n2ccc(N)nc2=O)[C@H](O)[C@@H]1O (stereo not given in full)
3. Cc1cccc(Nc2cc(Cl)nc(SCC(=O)O)n2)c1C

**A:**
["0.0593 (active)", "0.976 (inactive)", "0.998 (inactive)"]

Provenance of the data: PubChem BioAssay AID1159580
